experiment: in vivo; settings: rat, spinal cord, ip, 4 g/kg, T ½ Late, 7 day old rat, 4 g/kg 15% EtOH i.p.
readoutName: half-life (h)
Give the number; h is assumed, so skip it.

Exercise: Look up half-life of CCO [EtOH, ethanol] and report it.
Key: 11.5

====

assay: in vivo; details: rat, whole blood, intraperitoneal, 4 g/kg, extension of blood late phase half-life of 21 day old beyond 7 day old rats, blood
readoutName: half-life (h)
Give the number; h is assumed, so skip it.

Exercise: Look up half-life of `CCO` and report it.
Key: 4
